- System: non-tumor-bearing immunocompetent FVB mice
- Test Method Notes: Biodistribution of lanthanide chloride salts LnCl3 (multiplexed ICP-MS)
- Format: in vivo
- Measurement Conditions: 24 h p.i., non-tumor-bearing mice
Measure Name: Tissue uptake: Lung (% ID/g)
Answers are plain numbers, in % ID/g.

The following molecules have reported results that may help.
[Cl][Lu]([Cl])[Cl] [[^175Lu]LuCl3]
0.88
[Cl][Tb]([Cl])[Cl] [[^159Tb]TbCl3]
1.0

Hey, quick one: what's Tissue uptake: Lung for each of these?
1. [Cl][Gd]([Cl])[Cl] [[^157Gd]GdCl3]
2. [Cl-].[Cl-].[Cl-].[Eu+3] [[^153Eu]EuCl3]

Result:
[1.3, 1.1]

###

What Organ ratios: Blood-to-liver was measured for each of the following?
- System: non-tumor-bearing immunocompetent FVB mice
- Test Method Notes: Biodistribution of lanthanide chloride salts LnCl3 (multiplexed ICP-MS)
- Type: in vivo
- Measurement Conditions: 1 h p.i.
Answers are plain numbers.

Look over these answered cases.
[Cl][Lu]([Cl])[Cl] [[^175Lu]LuCl3]
0.61
[Cl-].[Cl-].[Cl-].[Eu+3] [[^153Eu]EuCl3]
0.14

I need Organ ratios: Blood-to-liver for every entry listed below, if you could help.
1. [Cl][Gd]([Cl])[Cl] [[^157Gd]GdCl3]
2. [Cl][Tb]([Cl])[Cl] [[^159Tb]TbCl3]

Result:
[0.14, 0.19]

###

- System: non-tumor-bearing immunocompetent FVB mice
- Test Method Notes: Biodistribution of lanthanide chloride salts LnCl3 (multiplexed ICP-MS)
- Format: in vivo
- Measurement Conditions: 96 h p.i., non-tumor-bearing mice
Measure Name: Tissue uptake: Lung (% ID/g)
One number for each entry, in % ID/g.

These recorded examples may help you get a feel for the data.
[Cl][Lu]([Cl])[Cl] [[^175Lu]LuCl3]
1.1
[Cl-].[Cl-].[Cl-].[Eu+3] [[^153Eu]EuCl3]
0.88
[Cl][Tb]([Cl])[Cl] [[^159Tb]TbCl3]
0.91

# ---- query compound ----
Q: Item [Cl][Gd]([Cl])[Cl] [[^157Gd]GdCl3] with non-tumor-bearing immunocompetent FVB mice - Tissue uptake: Lung?
Result: 1.1

###

- Test Method Notes: Biodistribution of Ln-DOTATATE and Ln-DOTA-LM3 (multiplexed ICP-MS)
- Measurement Conditions: female, CD1 nude, mouse, blood, intravenous, 0.5 nmol, Tissue uptake: Blood, 24 h p.i., AR42J tumor-bearing mice
Where a SMILES comes first, the peptide text is derived from it. Bridges are numbered along the chain shown (N, C = ends). [ ]: non-standard residue; d: D form. The star is where a group is joined. DOTA = O=C(O)CN1CCN(CC(=O)O)CCN(CC(=O)*)CCN(CC(=O)O)CC1; dPhe(4-NHCONH2) = NC(=O)Nc1ccc(C[C@@H](N)C(=O)O)cc1; Phe(4-Cl) = N[C@@H](Cc1ccc(Cl)cc1)C(=O)O
Measure Name: tissue uptake at 24 h

Q: So what's the measured tissue uptake at 24 h for this one? C[C@@H](O)[C@@H]1NC(=O)[C@H](CCCCN)NC(=O)[C@@H](Cc2ccc(NC(N)=O)cc2)NC(=O)[C@H](Cc2ccc(O)cc2)NC(=O)[C@H](NC(=O)[C@H](Cc2ccc(Cl)cc2)NC(=O)CN2CCN(CC(=O)O)CCN(CC(=O)O)CCN(CC(=O)O)CC2)CSSC[C@@H](C(=O)N[C@H](Cc2ccc(O)cc2)C(N)=O)NC1=O [[^175Lu]Lu-DOTA-LM3] ({DOTA}-[Phe(4-Cl)][dC]Y[dPhe(4-NHCONH2)]KTC[dY]-NH2; disulfide 2-7 (inferred); C-terminus assumed)
Result: < 0.5 %ID/g

###

- Tested on: non-tumor-bearing immunocompetent FVB mice
- Test Method Notes: Biodistribution of lanthanide chloride salts LnCl3 (multiplexed ICP-MS)
- Format: in vivo
- Measurement Conditions: 1 h p.i., non-tumor-bearing mice
Measure Name: Tissue uptake: Salivary glands

Some solved cases for reference:
[Cl-].[Cl-].[Cl-].[Eu+3] [[^153Eu]EuCl3]
2.7 ± 1.7 % ID/g
[Cl][Gd]([Cl])[Cl] [[^157Gd]GdCl3]
2.8 ± 1.3 % ID/g
[Cl][Lu]([Cl])[Cl] [[^175Lu]LuCl3]
2.6 ± 0.9 % ID/g

Consider now this further molecule.
Q: Endpoint output: Tissue uptake: Salivary glands of [Cl][Tb]([Cl])[Cl] [[^159Tb]TbCl3] . Value?
Result: 2.4 ± 1.4 % ID/g

###

- Tested on: non-tumor-bearing immunocompetent FVB mice
- Test Method Notes: Biodistribution of lanthanide chloride salts LnCl3 (multiplexed ICP-MS)
- Assay type: in vivo
- Measurement Conditions: 96 h p.i., non-tumor-bearing mice
Measure Name: Tissue uptake: Kidneys (% ID/g)
Answers are plain numbers, in % ID/g.

// below: answered compounds
[Cl][Gd]([Cl])[Cl] [[^157Gd]GdCl3]
2.0
[Cl-].[Cl-].[Cl-].[Eu+3] [[^153Eu]EuCl3]
1.9
[Cl][Tb]([Cl])[Cl] [[^159Tb]TbCl3]
2.0

Q: What does the data say about its Tissue uptake: Kidneys? Entry: [Cl][Lu]([Cl])[Cl] [[^175Lu]LuCl3]
Result: 2.7

###

- Tested on: non-tumor-bearing immunocompetent FVB mice
- Test Method Notes: Biodistribution of lanthanide chloride salts LnCl3 (multiplexed ICP-MS)
- Format: in vivo
- Measurement Conditions: 1 h p.i., non-tumor-bearing mice
Would you kindly list Tissue uptake: Blood for each of these molecules?
Answers are plain numbers, in % ID/g.

[Cl-].[Cl-].[Cl-].[Eu+3] [[^153Eu]EuCl3]
5.5
[Cl][Gd]([Cl])[Cl] [[^157Gd]GdCl3]
4.9
[Cl][Tb]([Cl])[Cl] [[^159Tb]TbCl3]
5.0

// below: Tissue uptake: Blood requested for another molecule
Q: Fill blank: measured Tissue uptake: Blood of the molecule [Cl][Lu]([Cl])[Cl] [[^175Lu]LuCl3] is ____.
Result: 6.4

###

- System: non-tumor-bearing immunocompetent FVB mice
- Test Method Notes: Biodistribution of lanthanide chloride salts LnCl3 (multiplexed ICP-MS)
- Type: in vivo
- Measurement Conditions: 1 h p.i., non-tumor-bearing mice
Measure Name: Tissue uptake: Bone (% ID/g)
Give bare numbers, in % ID/g.

Observe how each entry below is paired with its result.
[Cl][Gd]([Cl])[Cl] [[^157Gd]GdCl3]
13
[Cl-].[Cl-].[Cl-].[Eu+3] [[^153Eu]EuCl3]
14
[Cl][Tb]([Cl])[Cl] [[^159Tb]TbCl3]
13

Let's switch to this molecule now.
Q: Report Tissue uptake: Bone for [Cl][Lu]([Cl])[Cl] [[^175Lu]LuCl3] please.
Result: 18

###

- Tested on: non-tumor-bearing immunocompetent FVB mice
- Test Method Notes: Biodistribution of lanthanide chloride salts LnCl3 (multiplexed ICP-MS)
- Format: in vivo
- Measurement Conditions: 24 h p.i., non-tumor-bearing mice
For each record, write down the corresponding Tissue uptake: Muscle.

Example entries begin here.
[Cl][Gd]([Cl])[Cl] [[^157Gd]GdCl3]
1.1 ± 0.8 % ID/g
[Cl-].[Cl-].[Cl-].[Eu+3] [[^153Eu]EuCl3]
<0.5 % ID/g

Batch request: Tissue uptake: Muscle per item, same order as input.
1. [Cl][Tb]([Cl])[Cl] [[^159Tb]TbCl3]
2. [Cl][Lu]([Cl])[Cl] [[^175Lu]LuCl3]

Result:
["<0.5 % ID/g", "<0.5 % ID/g"]

###

- Tested on: non-tumor-bearing immunocompetent FVB mice
- Test Method Notes: Biodistribution of lanthanide chloride salts LnCl3 (multiplexed ICP-MS)
- Type: in vivo
- Measurement Conditions: 96 h p.i., estimated ratios (organ <0.5% ID/g)
Marks after values point to notes of the source that are not given here.
Measure Name: Organ ratios: Blood-to-liver

Consider the following illustrative entries.
[Cl][Tb]([Cl])[Cl] [[^159Tb]TbCl3]
<0.05^*
[Cl][Gd]([Cl])[Cl] [[^157Gd]GdCl3]
<0.03^*
[Cl][Lu]([Cl])[Cl] [[^175Lu]LuCl3]
<0.11^*

Could you now look at the following compound, please?
Q: Query for non-tumor-bearing immunocompetent FVB mice: what Organ ratios: Blood-to-liver does the record show for [Cl-].[Cl-].[Cl-].[Eu+3] [[^153Eu]EuCl3] ?
Result: <0.02^*

###

- Test Method Notes: Biodistribution of Ln-DOTATATE and Ln-DOTA-LM3 (multiplexed ICP-MS)
- Measurement Conditions: female, CD1 nude, mouse, pancreas, intravenous, 0.5 nmol, Tissue uptake: Pancreas, 1 h p.i., AR42J tumor-bearing mice
Where a SMILES comes first, the peptide text is derived from it. Bridges are numbered along the chain shown (N, C = ends). [ ]: non-standard residue; d: D form. The star is where a group is joined. DOTA = O=C(O)CN1CCN(CC(=O)O)CCN(CC(=O)*)CCN(CC(=O)O)CC1; dPhe(4-NHCONH2) = NC(=O)Nc1ccc(C[C@@H](N)C(=O)O)cc1; Phe(4-Cl) = N[C@@H](Cc1ccc(Cl)cc1)C(=O)O
Measure Name: tissue uptake at 1 h (%ID/g)
Give bare numbers, in %ID/g.

Q: Given the entry C[C@@H](O)[C@@H]1NC(=O)[C@H](CCCCN)NC(=O)[C@@H](Cc2ccc(NC(N)=O)cc2)NC(=O)[C@H](Cc2ccc(O)cc2)NC(=O)[C@H](NC(=O)[C@H](Cc2ccc(Cl)cc2)NC(=O)CN2CCN(CC(=O)O)CCN(CC(=O)O)CCN(CC(=O)O)CC2)CSSC[C@@H](C(=O)N[C@H](Cc2ccc(O)cc2)C(N)=O)NC1=O [[^175Lu]Lu-DOTA-LM3] ({DOTA}-[Phe(4-Cl)][dC]Y[dPhe(4-NHCONH2)]KTC[dY]-NH2; disulfide 2-7 (inferred); C-terminus assumed) , report its measured tissue uptake at 1 h.
Result: 1.1

Reference source for all entries: paper PMC11839852
